The values you see were collected from the supplement of paper PMC10567573.

B1: TMEM192 (parent)
chain: ILGKVILWILHLLLECYIQYHHSK

variants of: B1; test: protein stability index of a GFP-peptide fusion (GPS, HEK-293T) (PSI 1-6); higher = more stable; settings: c terminus: a fixed tail appended;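 further: lentivirally expressed fusions sorted by FACS into six bins by GFP to DsRed ratio, PSI derived from sequencing read proportions per bin multiplied by bin number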
valueType: protein stability index
# respond with the number and nothing more

Worked set:
> print(dat)
                 constructsequence  measuredvalue
1  ILGKVILWILWLLLECYIQYHHSK [H11W]           2.94
2   ISGKVILWILHLLLECYIQYHHSK [L2S]           2.82
3   ILGKVITWILHLLLECYIQYHHSK [L7T]           3.57
4   ILGLVILWILHLLLECYIQYHHSK [K4L]           3.75
5  ILGKVILWILHLLLECYIQYHHVK [S23V]           4.52

// below: protein stability index requested for another variant
Problem: Let me know recorded protein stability index for ILGKVILWILHLLLECDIQYHHSK [Y17D] , thanks.
Result: 2.2
